System: A498 renal
Experiment: NCI-60 one-dose screen, 48 h
Conditions: 10 µM unless noted
This is part of a sample that, as a whole, favours compounds with a hit. Of some 83,000 tested, about 20% had one in any assay. The source made the active and inactive calls. Rule for the calls: active = growth percent below 10; inactive = the rest.
Outcome (select one): active, inactive

Known results for compounds:
compound	category
C=CCn1cc(-c2nc3ccccc3s2)c2cc(-c3ccc4c5c(cccc35)C(=O)N(CCO)C4=O)ccc21	inactive
C#Cc1cccc(NC(=O)C2CCCCN2C(=O)CCl)c1 (stereo not given)	inactive
Cc1ccc(O)c(NC(=O)c2cccc(Nc3ccnc(C(F)(F)F)c3)c2)c1	inactive

Problem: Test call for this compound, please: C=C(C)[C@@H]1CC[C@]2(CO)CC[C@]3(C)[C@H](CC[C@@H]4[C@@](C)(CCCN)[C@H](C(=C)C)CC[C@]43C)[C@@H]12
Solution: active

Problem: Test call for this compound, please: COCCn1cc(-c2nc(-c3cn(CCOC)c4ncccc34)cs2)c2cc(F)ccc21
Solution: inactive

Origin of the recorded values: PubChem BioAssay (NCI)
